pKi: −log10 of the molar value.
Quick note: these are pKi numbers for system: human D3 receptor (Homo sapiens (Human), UniProt P35462)
Sequence (P35462 whole entry): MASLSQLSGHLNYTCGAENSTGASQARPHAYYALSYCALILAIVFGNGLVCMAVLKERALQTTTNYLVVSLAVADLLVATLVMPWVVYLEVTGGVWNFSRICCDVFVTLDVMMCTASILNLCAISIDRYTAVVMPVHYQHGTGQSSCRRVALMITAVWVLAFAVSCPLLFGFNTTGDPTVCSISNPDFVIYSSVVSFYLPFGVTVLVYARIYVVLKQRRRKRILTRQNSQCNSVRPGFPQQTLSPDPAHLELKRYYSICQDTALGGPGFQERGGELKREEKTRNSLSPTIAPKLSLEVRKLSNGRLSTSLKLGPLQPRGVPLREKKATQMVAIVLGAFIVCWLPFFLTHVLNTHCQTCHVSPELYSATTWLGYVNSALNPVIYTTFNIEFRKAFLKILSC
propertyName: pKi

• CC#CC(=O)N[C@H]1CC[C@H](CCN2CCN(c3nccc4c3CCO4)CC2)CC1 = 7.76
• CCC(=O)N[C@H]1CC[C@H](CCN2CCN(c3nccc4c3CCO4)CC2)CC1 = 8.01
• CN1CCN(c2ccc(C(=O)N[C@H]3CC[C@H](CCN4CCN(c5nccc6c5CCO6)CC4)CC3)cc2)CC1 = 7.83
• CN(C)C(=O)N[C@H]1CC[C@H](CCN2CCN(c3nccc4c3CCO4)CC2)CC1 = 7.03
• O=C(N[C@H]1CC[C@H](CCN2CCN(c3nccc4c3CCO4)CC2)CC1)c1ccnc2ccccc12 = 7.97
• CC[C@@H](O)CC(=O)N[C@H]1CC[C@H](CCN2CCN(c3nccc4c3CCO4)CC2)CC1 = 7.35
• CO[C@@H]1CC[C@@H](CC(=O)N[C@H]2CC[C@H](CCN3CCN(c4nccc5occc45)CC3)CC2)C1 (racemic) = 7.54
• CO[C@H]1CC[C@H](CC(=O)N[C@H]2CC[C@H](CCN3CCN(c4nccc5sccc45)CC3)CC2)CC1 = 8.52
• CC(C)(O)CC(=O)N[C@H]1CC[C@H](CCN2CCN(c3nccc4c3CCO4)CC2)CC1 = 7.67
• O=C(N[C@H]1CC[C@H](CCN2CCN(c3nccc4c3CCO4)CC2)CC1)C1CC1(F)F (stereo partly shown) = 7.62
• O=C(N[C@H]1CC[C@H](CCN2CCN(c3nccc4c3CCO4)CC2)CC1)c1ccc2c(c1)OCO2 = 7.66
• O=C(N[C@H]1CC[C@H](CCN2CCN(c3nccc4c3CCO4)CC2)CC1)c1ccc(N2CCS(=O)(=O)CC2)cc1 = 7.84
• O=C(N[C@H]1CC[C@H](CCN2CCN(c3nccc4c3CCO4)CC2)CC1)c1ccc(Cl)cc1Cl = 7.57
• O=C(N[C@H]1CC[C@H](CCN2CCN(c3nccc4c3CCO4)CC2)CC1)c1ccc(N2CCCCC2)cc1 = 7.35
• COCCC(=O)N[C@H]1CC[C@H](CCN2CCN(c3nc(C)cc4c3CCO4)CC2)CC1 = 7.93
• Cc1cc(CC(=O)N[C@H]2CC[C@H](CCN3CCN(c4nccc5c4CCO5)CC3)CC2)on1 = 8.40
• CS(=O)(=O)N[C@H]1CC[C@H](CCN2CCN(c3nccc4c3CCO4)CC2)CC1 = 7.50
• COC(CC(=O)N[C@H]1CC[C@H](CCN2CCN(c3nccc4c3CCO4)CC2)CC1)OC = 7.71
• O=C(CC1(O)CCC1)N[C@H]1CC[C@H](CCN2CCN(c3nccc4c3CCO4)CC2)CC1 = 7.59
• COCCC(=O)N[C@H]1CC[C@H](CCN2CCN(c3ncc(C)c4c3CCO4)CC2)CC1 = 7.33
• O=C(N[C@H]1CC[C@H](CCN2CCN(c3nccc4occc34)CC2)CC1)C1CC1 = 7.66
• O=C(N[C@H]1CC[C@H](CCN2CCN(c3nccc4c3CCO4)CC2)CC1)C1CCOC1 (mixture of isomers) = 7.74
• O=S(=O)(N[C@H]1CC[C@H](CCN2CCN(c3nccc4c3CCO4)CC2)CC1)c1ccccc1 = 7.81
• O=C(CC(F)(F)F)N[C@H]1CC[C@H](CCN2CCN(c3nccc4c3CCO4)CC2)CC1 = 8.18
• O=C(CO)N[C@H]1CC[C@H](CCN2CCN(c3nccc4occc34)CC2)CC1 = 7.37
• O=C(C[C@@H](O)C(F)(F)F)N[C@H]1CC[C@H](CCN2CCN(c3nccc4c3CCO4)CC2)CC1 = 7.71
• CO[C@H]1CC[C@H](CC(=O)N[C@H]2CC[C@H](CCN3CCN(c4nccc5occc45)CC3)CC2)CC1 = 7.49
• CC(C)(C)C(=O)N[C@H]1CC[C@H](CCN2CCN(c3nccc4c3CCO4)CC2)CC1 = 7.23
• CC[C@H](O)CC(=O)N[C@H]1CC[C@H](CCN2CCN(c3nccc4c3CCO4)CC2)CC1 = 7.70
• O=C(N[C@H]1CC[C@H](CCN2CCN(c3nccc4sccc34)CC2)CC1)C1CCOCC1 = 8.44
• O=C(C[C@H]1CC[C@H](O)CC1)N[C@H]1CC[C@H](CCN2CCN(c3nccc4occc34)CC2)CC1 = 7.26
